# System: spleen cell leukocytes (cell viability)
# test-description: in vitro
# Type: cell-based, female Balb/c mice
# details: 48 h
# Protocol: Measurement of drug-induced cellular cytotoxicity was determined after 48 hours of cell culture with and without conA and with and without test compound or vehicle control. […] The cells were washed and concentrated on the well membrane under low vacuum, and cell associated fluorescence was measured by front surface fluorometry (485/535 nM) in the Screen Machine (Baxter) using an automated protocol. […]
quantity: CC50 (µM)

| compound | quantity | test-result |
| --- | --- | --- |
| COc1ccc(CCN(C)CC(O)CC(C#N)(c2ccc(OC)c(OC)c2)C(C)C)cc1OC (racemic) | CC50 | 60 |
